- Experiment summary: MRP1 drug-resistance reversers in H69AR cells – cell-based, doxorubicin co-treatment, pilot screen (AID 601)
- Reported conditions: H69AR cells + 2 uM doxorubicin, CellTiter-Glo, 72 h; at 10 µM; stronger effect = higher value
The source made the active and inactive calls.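 Rule for the calls: active = viability loss from added drug above about 55%, and viability with drug at most 40%, in both replicates (limit read from the data, passing the limit was not always enough); inconclusive = both conditions met in only one replicate; inactive = neither replicate meets both conditions.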
Property label: differential viability (reversal)

| Compound | Property label | Result |
| --- | --- | --- |
| NC(=O)OCCSc1nnc(-c2cccc(C(N)=S)c2)o1 | differential viability (reversal) | 13.7% (inactive) |

QUERY: Look up differential viability (reversal): CN1C(=O)C(Cc2cccc3ccccc23)C(=O)N(C)C1=O
RESULT: -7.14% (inactive)

QUERY: Look up differential viability (reversal): COC(=O)c1cncn1C(C)c1ccccc1 (centres undefined)
RESULT: 6.07% (inactive)

QUERY: Look up differential viability (reversal): COc1ccc2[nH]cc(CCN(C)C)c2c1
RESULT: 8.63% (inactive)

* * *

# inhibition per entry
- Target desc: Pantothenate synthetase (Mycobacterium tuberculosis (strain ATCC 25618 / H37Rv)) (UniProt P9WIL5)
- Sequence (P9WIL5 whole entry, looked up): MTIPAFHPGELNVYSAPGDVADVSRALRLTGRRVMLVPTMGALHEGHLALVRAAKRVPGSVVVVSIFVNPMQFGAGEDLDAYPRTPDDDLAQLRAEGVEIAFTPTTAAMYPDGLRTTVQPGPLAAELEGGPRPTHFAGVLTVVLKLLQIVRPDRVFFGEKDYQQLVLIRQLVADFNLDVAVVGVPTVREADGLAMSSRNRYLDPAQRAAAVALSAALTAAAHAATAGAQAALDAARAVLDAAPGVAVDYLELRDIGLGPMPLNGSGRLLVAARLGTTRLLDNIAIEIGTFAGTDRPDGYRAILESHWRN
- Experiment summary: Coupled enzyme confirmation of inhibitors against recombinant Mtb PanC (AID 375);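 note: 0% = full reaction with vehicle and 100% = no enzyme background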
- Reported conditions: coupled enzyme assay; at 10 µM, stronger effect = higher value
Numbers only here, please. The scale is %.

As a guide, the following entries are already answered.
| Compound | inhibition, % |
| --- | --- |
| Cc1ccc(Cl)cc1N1CCN(C(=O)c2cn(C)c(=O)c3c2c2ccccc2n3C)CC1 | 3 |
| Cn1c(=O)c2[nH]c(NCC3CCCO3)nc2n(-c2ccccc2)c1=O (centres undefined) | 0 |
| CCOC(=O)N1CCC(NC(=O)C2CCCN2C(=O)OCc2ccccc2)CC1 (centres undefined) | 5 |
| Cc1cc2c(cc(C(=O)OCC(=O)NCc3cccs3)n2C(C)C)o1 | 0 |
| CC1CCCCN1CCNS(=O)(=O)c1ccc2c(c1)oc(=O)n2C (centres undefined) | 0 |

QUERY: Look up inhibition: Cc1nc2c(C(=O)O)cnn2c(C)c1Cc1ccccc1F
RESULT: 0

QUERY: Look up inhibition: CC(=O)N1CCC2(CC1)CC(=O)c1cc(OCC(=O)NCc3ccc(C)cc3)ccc1O2
RESULT: 3

QUERY: Look up inhibition: CCOC(=O)N1CCN(C(=O)CN(C2CCCCC2)S(=O)(=O)c2ccc(F)cc2)CC1
RESULT: 0

QUERY: Look up inhibition: O=c1c2ccccc2nnn1CSc1nc2cc(Cl)ccc2c(=O)n1Cc1ccco1
RESULT: 7

QUERY: Look up inhibition: CCOC(=O)c1ccc(NC(=O)CCNc2c(N3CCCC3)c(=O)c2=O)cc1
RESULT: 0

QUERY: Look up inhibition: Cc1ccc2c(c1)CCCN2C(=O)C1CCCO1 (centres undefined)
RESULT: 5

QUERY: Look up inhibition: COc1ccc(N2CCN(C(c3cccc(OC)c3OC)c3nnnn3C3CCCC3)CC2)cc1 (centres undefined)
RESULT: 0

QUERY: Look up inhibition: CCCOc1cccc(C2/C(=C(/O)c3ccccc3)C(=O)C(=O)N2CCN(C)C)c1 (centres undefined)
RESULT: 0

QUERY: Look up inhibition: O=C1Nc2ccccc2OC1CC(=O)N1CCCC1 (centres undefined)
RESULT: 0

QUERY: Look up inhibition: CC(=O)CCc1ccc(OCCCCn2cncn2)cc1
RESULT: 0

QUERY: Look up inhibition: COC(=O)CS(=O)(=O)c1nnc([C@H](Cc2ccccc2)NC(=O)OC(C)(C)C)o1
RESULT: 1

QUERY: Look up inhibition: COc1ccc(-c2noc(CN3C(=O)c4ccccc4C3=O)n2)cc1
RESULT: 0

QUERY: Look up inhibition: CCCCCc1c(C)nc(SCC(=O)O)[nH]c1=O
RESULT: 0

QUERY: Look up inhibition: Cc1ccc(N(C(=O)c2ccncc2)C2C=CS(=O)(=O)C2)cc1 (centres undefined)
RESULT: 5
